- experimentalSystem: human MMP-13 (Homo sapiens, UniProt P45452)
- Construct: truncated form of human recombinant MMP-13; purchased Chondrex, USA
- experiment: Inhibitory activity of human MMP-13
- Assay type: biochemical
- testConditions: commercial kit, truncated form of human recombinant MMP-13, fluorogenic peptide substrate, 1 hour at 35°C
propertyLabel: IC50 (nM)

O=C(CC1(c2ccc(Oc3ccc(Cl)cc3)cc2)CCCCS1(=O)=O)NO (single isomer, unassigned) [Example 15] :: 2.2

Cited source: patent EP1140895B1
